measured target: human mGlu 5a receptor (Homo sapiens, UniProt P41594)
Construct: expressed in transfected cells; host or cells: EBNA cells (transient transfection); cell membrane homogenates
Sequence (P41594 21-1180 isoform P41594-2 limits assumed): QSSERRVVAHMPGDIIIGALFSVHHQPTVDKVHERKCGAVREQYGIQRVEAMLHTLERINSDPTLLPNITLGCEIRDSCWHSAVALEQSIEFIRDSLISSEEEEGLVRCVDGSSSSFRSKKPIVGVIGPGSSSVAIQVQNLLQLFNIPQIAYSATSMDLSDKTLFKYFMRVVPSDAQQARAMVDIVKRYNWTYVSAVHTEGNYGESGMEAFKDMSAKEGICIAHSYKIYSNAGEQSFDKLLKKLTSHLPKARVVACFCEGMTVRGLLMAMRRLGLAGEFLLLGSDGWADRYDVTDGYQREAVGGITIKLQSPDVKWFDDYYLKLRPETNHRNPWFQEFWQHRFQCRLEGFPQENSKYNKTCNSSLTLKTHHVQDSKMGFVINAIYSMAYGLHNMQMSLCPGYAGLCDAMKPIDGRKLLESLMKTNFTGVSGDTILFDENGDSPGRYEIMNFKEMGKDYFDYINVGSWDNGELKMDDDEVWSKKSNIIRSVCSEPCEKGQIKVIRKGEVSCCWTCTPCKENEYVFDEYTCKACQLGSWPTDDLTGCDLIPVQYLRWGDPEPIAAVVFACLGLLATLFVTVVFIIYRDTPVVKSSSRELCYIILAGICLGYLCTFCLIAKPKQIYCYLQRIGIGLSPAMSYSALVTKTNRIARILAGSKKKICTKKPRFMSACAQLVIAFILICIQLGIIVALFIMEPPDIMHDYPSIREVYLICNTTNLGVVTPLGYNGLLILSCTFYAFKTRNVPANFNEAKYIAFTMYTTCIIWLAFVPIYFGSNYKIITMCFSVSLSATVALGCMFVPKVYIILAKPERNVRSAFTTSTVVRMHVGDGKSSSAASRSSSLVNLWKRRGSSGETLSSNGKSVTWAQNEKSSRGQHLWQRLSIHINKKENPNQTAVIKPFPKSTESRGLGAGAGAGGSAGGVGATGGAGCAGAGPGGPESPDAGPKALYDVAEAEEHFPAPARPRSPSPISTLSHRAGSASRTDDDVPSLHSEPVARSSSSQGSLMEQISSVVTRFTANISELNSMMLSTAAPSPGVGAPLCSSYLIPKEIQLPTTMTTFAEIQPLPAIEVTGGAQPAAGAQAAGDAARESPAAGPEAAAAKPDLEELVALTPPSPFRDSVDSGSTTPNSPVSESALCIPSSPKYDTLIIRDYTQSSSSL
assay info: [3H]MPEP competition binding on membranes of EBNA cells transfected with human mGlu 5a receptor
assay setup: read-out: Ki (mGluR5)
Structures can show the parent of a compound that is named as a salt.
measured attribute: Ki (nM)
Numbers only, in nM.

Here's what some known entries look like.
>>> observed_result("Cc1cc(C#Cc2cn(-c3ncccn3)c(C)n2)ccn1")
74
>>> observed_result("Cc1cc(C#Cc2cn(-c3cccc(N(C)C)n3)c(C)n2)ccn1")
19
>>> observed_result("Cc1cc(C#Cc2cn(-c3nccc(C(F)(F)F)n3)c(C)n2)ccn1")
17
>>> observed_result("Cc1cc(C#Cc2cn(-c3ccc4c(ccn4C)c3)c(C)n2)ccn1")
45
>>> observed_result("Cc1cc(C#Cc2cn(-c3ccc(Cl)c(Cl)c3)c(C)n2)ccn1 [Compound 2, hydrochloride]")
18

For each listed entry, give its Ki.
1. Cc1cc(C#Cc2cn(-c3nccc(Cl)n3)c(C)n2)ccn1
2. Cc1cc(C#Cc2cn(-c3cccc(C4CC4)n3)c(C)n2)ccn1

Output:
1: 25; 2: 16
